Test: inhibitors of TWEAK-Fn14 signaling, primary screen, luciferase reporter cells, uHTS (AID 1159606)
Conditions: TWEAK-stimulated Fn14 reporter cells, luciferase luminescence, 8 h; at 10 µM; hits give high values
The whole screen tested about 360,000 compounds, of which about 7,300 (2%) were called active. This is one part of a sample in which actives are shown more often than they occur.
Decision: inhibition compared against 20%; not below it gives YES, below it gives NO.

INSERT INTO assay_data (molecule, category_label) VALUES
  ('Cc1cc(C)c(C)c(S(=O)(=O)Nc2ccc(O)cc2)c1C', 'YES'),
  ('CCN(CC)C(=O)CCC(=O)Nc1ccc(C(=O)OC)cc1', 'NO'),
  ('O=C(OC12CC3CC(CC(C3)C1)C2)c1ccc(NCc2cc(O)ccc2O)cc1', 'YES'),
  ('Cc1cc(C)c(C)c(S(=O)(=O)N[C@@H](C)C(=O)OC(C)C(=O)NC(N)=O)c1C (stereo not given in full)', 'YES');

---

Assay: inhibitors of TWEAK-Fn14 signaling, primary screen, luciferase reporter cells, uHTS (AID 1159606)
Conditions: TWEAK-stimulated Fn14 reporter cells, luciferase luminescence, 8 h; at 10 µM
The whole screen tested about 360,000 compounds, of which about 7,300 (2%) were called active. No stated cut-off is given here; in the data, active means inhibition above about 50%; inactive means the rest. This is one part of a sample in which actives are shown more often than they occur.
Labels: 1 = active, -1 = inactive

INSERT INTO assay_data (compound, category_label) VALUES
  ('COc1ccc(OC)c(/C(C)=N\NC(=O)c2cc3cc(Cl)ccc3n2C)c1', -1),
  ('O=C(NCc1ccccn1)[C@@H]1CCCN1C(=O)[C@@H]1CCCN1C(=O)c1ccccc1', -1),
  ('O=C(Nc1cccc(NC(=O)N2CCN(c3ccccc3)CC2)c1)N1CCN(c2ccccc2)CC1', 1),
  ('CCOC(=O)C1CCCCN1Cc1ccc(OC)c(OC)c1OC (stereo not given)', -1),
  ('CC1(C(=O)NS(=O)(=O)c2ccc3ccccc3c2)CCN1C(=O)C1(c2ccc(Cl)cc2)CCC1 (stereo not given)', -1);

---

Assay: inhibitors of TWEAK-Fn14 signaling, primary screen, luciferase reporter cells, uHTS (AID 1159606)
Details: TWEAK-stimulated Fn14 reporter cells, luciferase luminescence, 8 h; at 10 µM
Out of some 360,000 compounds screened, about 7,300 (2%) were called active. Cut-off read from the data, not from the text of the source: active = inhibition above about 50%; inactive = the rest. The full list was thinned out, with actives kept by preference.
Possible outcomes: t for active, f for inactive

INSERT INTO measurements (compound, category_label) VALUES
  ('C=CC1=C(C(=O)O)N2C(=O)[C@@H](NC(=O)/C(=N\OCC(=O)O)c3csc(N)n3)[C@H]2SC1', 'f'),
  ('CC(NC(=O)COC(=O)Cn1cc(C(F)(F)F)ccc1=O)c1ccccc1 (configuration not stated)', 'f'),
  ('Cc1cccc2sc(N(CCCN(C)C)C(=O)CCS(=O)(=O)c3ccccc3)nc12', 't'),
  ('Cc1noc(C)c1C(=O)NCC1COc2ccccc2O1 (configuration not stated)', 'f'),
  ('Cc1ccc(C)c(S(=O)(=O)N(C)c2ccc(OC(=O)C3CCN(C(=O)c4ccc(F)cc4)CC3)cc2)c1', 'f'),
  ('COc1ccc(N(C)C(=O)CCS(=O)(=O)c2cccc3nsnc23)cc1', 'f'),
  ('Cc1oc2cc(Br)c(O)c(Br)c2c1C(=O)c1ccccc1', 'f'),
  ('COc1ccc(NC(=O)CCCNC(=O)Cn2cnc3sc4c(c3c2=O)CCCC4)cc1OC', 'f'),
  ('C=CC1=C(C(=O)O)N2C(=O)[C@@H](NC(=O)/C(=N/OCC(=O)O)c3csc(N)n3)[C@H]2SC1', 't'),
  ('CCCCCN(C(=O)CCC(=O)OCCOc1ccc(OC)cc1)c1c(N)n(CCCC)c(=O)[nH]c1=O', 'f'),
  ('Cc1nc(N)nc(Cl)c1CCC1OCCO1', 'f'),
  ('CCCc1[nH]nc2c1C(C1CC=CCC1)C(C#N)=C(N)O2 (configuration not stated)', 't'),
  ('O=C(CCl)Nc1ccc(Sc2ccc(NC(=O)CCl)cc2)cc1', 'f'),
  ('CC(Nc1nc(N2CCCC2)nc2ccccc12)c1ccccc1 (configuration not stated)', 'f'),
  ('c1ccc(-c2cc3c(NCC4COc5ccccc5O4)ncnc3s2)cc1 (configuration not stated)', 't'),
  ('Cc1cccc(C)c1NC(=O)CCS(=O)(=O)c1cccc2nsnc12', 'f'),
  ('COc1ccc(NC(=O)CCNC(=O)Cn2cnc3sc4c(c3c2=O)CCCC4)cc1OC', 'f'),
  ('O=C(Cn1cnc2ccccc2c1=O)NCC1COc2ccccc2O1 (configuration not stated)', 'f'),
  ('N#CC1=C(N)OC2=C(C(=O)CCC2)C1C1CC=CCC1 (configuration not stated)', 'f'),
  ('O=C(CCS(=O)(=O)c1ccccc1)Nc1nc2c(s1)CCCC2', 'f'),
  ('COc1ccc(/C=N/Nc2ncnc3sc4c(c23)CCCC4)cc1O', 't'),
  ('CC(C)(CCl)C(=O)Nc1ccc(Sc2ccc(F)cc2)cc1', 't');
